The reported numbers originate from the supplement of paper PMC9170038.

- Test system: MS2 coat protein
- TEST_NAME: apparent KD of MS2 coat protein; higher = weaker reporter binding
- TEST_CONTEXT: Eterna round: R107; input ligand: theophylline 20 uM
Each entry below lists one item and its recorded apparent KD of MS2 coat protein value.
# value in µM; strip the unit string

UCAUUUGAGUGAGAUGUAAGGUAUCAUGAUACCAGUAGAUAAUUAUACCCUUGGCAGCAUAACAUGAGGAUCACCCAUGUACAUG [Ac]    0.027

API: the following record is the query input.
Please fill in: apparent KD of MS2 coat protein reported for UAAUAAGUACCGGUCCUCAGAUCCUCAUGUCGAGGACCGGUACGGCCGCCACUCGAAACAUGAGGAUCACCCAUGUAAUAAUAAU [#06 Exclusion Tryptophan A] = 0.0526

###

Each entry below lists one item and its recorded apparent KD of MS2 coat protein value.
- System: MS2 coat protein
- TEST_NAME: apparent KD of MS2 coat protein; designed switch direction (-1 OFF switch, 1 ON switch): -1; higher = weaker reporter binding
- TEST_CONTEXT: input ligand: FMN 200 uM
# value in nM; strip the unit string

GCACCGCGAGGAUAUACAUGAGGAUCACCCAUGUGUCCGCAGCGAUGUGUGUACAAAUGUAGAAGGCGCGUAAA [EX3 #60] (Eterna round: R97, puzzle: Exclusion 3)    21.5

API: the following record is the query input.
Please fill in: apparent KD of MS2 coat protein reported for GUUUUCAGACGGAGAUCCUACAUGAGGAUCACCCAUGUCUCACUUGUUUUUUGCUCGUCUUAUCCUCCUCUGUUCUC [Elimod 30 - Jieux - Sensor, turn-off variant 1] (Eterna round: R97, puzzle: Sensor, turn-off variant 1) = 414

###

- System: K4 kissing-loop RNA reporter;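 note: bound reporter read as fluorescence of individual clusters on recovered sequencing chips by microscopy, with normalized cluster intensities fitted with a binding model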
- TEST_NAME: apparent KD of K4 kissing-loop reporter; higher = weaker reporter binding
- TEST_CONTEXT: Eterna round: R107; input ligand: arginine 13.2 mM
Assign class by apparent KD of K4 kissing-loop reporter: not lower than 200 nM means y; lower than 200 nM means n.

GGUGUUGUUUGUGCCGUCUUCCUCGUUCCUCGAGGACCGGUACGGCCGCCACUCGAGUGAUGUUUGGGUAGCGAUCCCUGUUAGU [Bdazzled - #10 Exc. Tryptophan A]    y
CCGCUGCCCUCAGGAUAUUAAGUAUUAGUGAUGUUAGUAAACCGAUGGCGAAAGCCAUCGGUAUGUUGAGAAGGGAGGGUAGCGG [whbob_SS_FMNB__2th199]    y
CGCCGCAAGGCGAGCGCUCCCACUCCGGAAGGAGCGCCCGUAAGGGCAGGUAGGUCGCCGGAGUGAUGUUCCGGUGGAGGGCUCG [#2 Exclusion - Arginine A Attempt #14 (Inspired by Omei)]    y
AGUGGACGUGUCCGGAGUGAUGUUCCGGAUACCAGACACGAAAGUGUCCCUUGGCAGCCGGAGUGAUGUUCCGGCGUUCACUAAA [Omei KL Theo A Exc B v1]    n
GUAGGAUGAGGAGGAGGAAGAAAUACUGAAGGAGCGCAAAGAAAUGCAGGUAGGUCGCGGUAAAGAAGUAUAGUGAUGUUAUAUA [SSArgA.C]    y
GUCCACACUGCAGGAUAUGGAGGUAUAGCGAGGGAGUUUGGAAGCACACCUCUGGCAGUGAUGUUGCCAGAAGGGCGGUGCGGCG [Rauserin]    n
UAGUCCUAGUGAUGGUUAUCACGUGGUGGGCGAGGACCGGUACGGCCGCCACUCGACUUUGCAGUGAUGUUGCAAACCGGACAAU [Exclusion - Tryptophan A (Freestyle 18)]    y
UGUAUGUGUCAGCGAGUGAUGUUCGACGAUACCAGACUCGAUAGAGUCCCUUGGCAGCGUAAUGCAUGCCAAACUGGCACAUACU [#SwitchBubble 13 #K4Early]    y

Ask | Does GGGCCGCGCGCGGCCGCCACUCAGUGAUGUUGGGUGAGCUUUGCUGUGCGUGCUGUUUCGUGACGGAGGACCGGGCGCGCGGCCU [BDazzled 2] have a reported apparent KD of K4 kissing-loop reporter of at least 200 nM?
Reply | n

Ask | Does UGACUGGACUGAAGGAGCGCUAAACUCCUAGUGAUGUUAGGAAAACGAGACAAAGUCUCGAGGCAGGUAGGUCGCAGUCUAGUCU [ArgBS 18 #SwitchBubble #StaticStem] have a reported apparent KD of K4 kissing-loop reporter of at least 200 nM?
Reply | n

###

- Test system: MS2 coat protein
- TEST_NAME: apparent KD of MS2 coat protein; higher = weaker reporter binding
- TEST_CONTEXT: Eterna round: R107; input ligand: theophylline 20 uM
Assign class by apparent KD of MS2 coat protein: not lower than 40 nM means y; lower than 40 nM means n.

Ask | Does GGGCACAUGAGGAUCACCCAUGUCCAACGGCGAGGACCGGUACGGCCGCCACUCGGUAUAAGCUUCGAAAAGGAGGAUCCUGCAG [theeternabot_sameState_MS2_Trp_A_35] have a reported apparent KD of MS2 coat protein of at least 40 nM?
Reply | y

Ask | Does GGUUUAUAUAUAUAUAUAUAGAUUACUGAAGGAGCGGGAAAUAACCCAGGUAGGUCGCAGAGAUCCACAUGAGGAUCACCCAUGU [!0.E] have a reported apparent KD of MS2 coat protein of at least 40 nM?
Reply | y

Ask | Does UAACAUGAGGCGGCCGCCACUCAACAUGAGGAUCACCCAUGUAUGUGUAAACAUGAGGAUCACCCGAGGACCGGGCCCUUGUAAU [Same State Tryptophan B 4] have a reported apparent KD of MS2 coat protein of at least 40 nM?
Reply | y

###

- Tested on: MS2 coat protein
- TEST_NAME: apparent KD of MS2 coat protein; designed switch direction (-1 OFF switch, 1 ON switch): -1; higher = weaker reporter binding
- TEST_CONTEXT: input ligand: FMN 200 uM
Each entry below lists one item and its recorded apparent KD of MS2 coat protein value.
# value in nM; strip the unit string

Below, each entry is followed by its recorded apparent KD of MS2 coat protein result.
UUUUUUUUGCGAGGAUAUGCAUUUAGUUAGUUAGCAGAAGGCGCGUUUCUAUACUCCUCUUCUUACAUGAGGAUCACCCAUGUU [JR_ExcNG1_Sub033] (Eterna round: R96, puzzle: Exclusion NG 1)    69.9
CGACGUAAAGGAUAUACAUGAGGAUCACCCAUGUCCCUACAAUGAGUAGGUACACGCAGUAGAAGGUUACUUCG [Eternabot (Original) Solution 15] (Eterna round: R97, puzzle: Exclusion 3)    107

API: the following record is the query input.
Please fill in: apparent KD of MS2 coat protein reported for AAAUAGGGAGGAUAUCCAAUAUAUGACAUGAGGAUCACCCAUGUUUCCACUCGUACCUCCGGAGAAGGCCCAUAAA [Ex5 #3] (Eterna round: R97, puzzle: Exclusion 5) = 20.9

###

- System: MS2 coat protein
- TEST_NAME: apparent KD of MS2 coat protein; designed switch direction (-1 OFF switch, 1 ON switch): -1; higher = weaker reporter binding
- TEST_CONTEXT: input ligand: none
Assign class by apparent KD of MS2 coat protein: not lower than 30 nM means Satisfied; lower than 30 nM means Not satisfied.

Examples from the recorded data:
UAAUUGAUUAAUAAAUUAUACAUGAGGAUCACCCAUGUAGAUCCUACGUGCCAUUUAAGUAGCUCGUCUUAUUAUUA [Sensor-V1 #64] (Eterna round: R97, puzzle: Sensor, turn-off variant 1)    Satisfied
AGCUAGAUAGGAUAUGCCCGGGAUAACAUGAGGAUCACCCAUGUGACCGAAUCAUGUCCAGCAGAAGGGUUUGGGA [Mod of ViennaUCT 9 - Jieux - Exclusion 5] (Eterna round: R97, puzzle: Exclusion 5)    Not satisfied
AGAUGCUCAAGUCGACAUGAGGAUCACCCAUGUACAGUUAAUGAGGAUAUCUGAGAUAAAUAAUAGGAGAAGGCGUGAACAUGA [Ex NG3 #9] (Eterna round: R96, puzzle: Exclusion NG 3)    Satisfied

Consider now this further sequence.
Ask | Does GUUGUUACUGAGGAUAUUAUUUUAUUCGAUUGAUAAGAAGGCAGUACAUGAGGAUCACCCAUGUGGGUAGUUAG [Polaris21] (Eterna round: R97, puzzle: Exclusion 6) have a reported apparent KD of MS2 coat protein of at least 30 nM?
Reply | Satisfied

###

- Tested on: MS2 coat protein
- TEST_NAME: apparent KD of MS2 coat protein, switch ON state; designed switch direction (-1 OFF switch, 1 ON switch): -1; higher = weaker reporter binding
- TEST_CONTEXT: FMN input: 0 or 200 uM; Eterna round: R93 (includes R88 designs)
Each entry below lists one item and its recorded apparent KD of MS2 coat protein value.
# value in nM; strip the unit string

AGACAUACAGGAUAUACAUAGGAAAAAAAAAAAAAAAUUCAACAUGAGGAUCACCCAUGUAGAAGGGUAUGUCA [Ex2 Design 172: Random 2]    65.5

Please fill in: apparent KD of MS2 coat protein reported for AGGAAACAUGAGGAUCACCCAUGUUAGGAUAUGAACGAAAUAAAAUAAAAAUAAAAGUUCAGAAGGGACAAAAA [Mat - Exclusion 1 - Eli mod - D20] = 24.9

Please fill in: apparent KD of MS2 coat protein reported for AAGAAACAUGAGGAUCACCCAUGUCAGGAUAUCAAAAAGAAAAGAAAAGAAAGAAGAAUGAGAAGGGACAAAGG [Meryibre Khety I] = 50.7

Please fill in: apparent KD of MS2 coat protein reported for AAAAAACAUGAGGAUCACCCAUGUGAGGAUAUCGCUAGUGAGACCCUAGUGUCAGUGAUGAGAAGGCACAUAAA [Brourd 613 Mod 8 - Jieux - Exclusion 1] = 32.8

Please fill in: apparent KD of MS2 coat protein reported for AACAGUACAGGAUAUACAUGAGGAUCACCCAUGUGGGUGUUAAGUGGCGUACCACAAAGUAGAAGGGUACUGGA [JL In the Red CG] = 327

Please fill in: apparent KD of MS2 coat protein reported for AAUAAACAUGAGGAUCACCCAUGUGAGGAUAUACAAAUAAAUAAAAAUAAAAUAAAAAGUAGAAGGCACAAUAA [JR_Exc001_Sub001] = 23.5
